# target-system: recombinant human SOS1 polypeptide (amino acids 560-1049) (Homo sapiens (Human))
# Sequence (Q07889 560-1049): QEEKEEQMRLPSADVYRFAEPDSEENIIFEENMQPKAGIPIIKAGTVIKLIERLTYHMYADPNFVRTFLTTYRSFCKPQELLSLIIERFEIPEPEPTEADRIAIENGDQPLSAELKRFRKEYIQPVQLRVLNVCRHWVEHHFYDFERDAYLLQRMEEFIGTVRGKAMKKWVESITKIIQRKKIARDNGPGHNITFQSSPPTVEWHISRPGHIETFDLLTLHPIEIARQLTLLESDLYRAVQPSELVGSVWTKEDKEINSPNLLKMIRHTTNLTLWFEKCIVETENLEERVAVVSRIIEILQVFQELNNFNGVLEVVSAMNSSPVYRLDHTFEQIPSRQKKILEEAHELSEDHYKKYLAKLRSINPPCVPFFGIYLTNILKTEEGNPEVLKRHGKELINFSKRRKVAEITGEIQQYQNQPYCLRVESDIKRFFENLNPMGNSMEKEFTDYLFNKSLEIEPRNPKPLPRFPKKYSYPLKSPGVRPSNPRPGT
# test: biochemical
# Type: binding
# experimental-parameters: HTRF displacement, Cy5 labelled tracer, Morrison equation for competitive binding; read-out: Ki, Inhibition of Labeled Tracer Binding to SOS1
Give log10 Ki for every item shown.
Heads up, the numbers here are log10 of Ki in nM units.

**Q:** Given Cc1nnc(N[C@H](C)c2cc(N)cc(C(F)(F)F)n2)c2cc(N3C[C@H]4CC[C@@H]3CN4C)ccc12 [Example 16-5] , respond with its log10 Ki.
**A:** 0.74

**Q:** Given Cc1c([C@@H](C)Nc2nnc(C)c3ccc(N4CCN(C)C5(CC5)C4)cc23)cccc1C(F)(F)F [Example 10-33] , respond with its log10 Ki.
**A:** -0.16

**Q:** Given Cc1c([C@@H](C)Nc2nncc3ccc(N4CCn5ncnc5C4)cc23)cccc1C(F)(F)F [Example 1-25] , respond with its log10 Ki.
**A:** -0.02

**Q:** Given Cc1c([C@@H](C)Nc2nnc(C)c3cnc(N4CC5CC(C4)O5)cc23)cccc1C(F)(F)F [Example 12-2] , respond with its log10 Ki.
**A:** -0.22

**Q:** Given CNCc1ccccc1-c1ccc([C@@H](C)Nc2nnc(C(F)(F)F)c3ccc(N4CCOCC4)cc23)s1 [Example 10-2] , respond with its log10 Ki.
**A:** 1.17

**Q:** Given Cc1c([C@@H](C)Nc2nnc(C)c3cnc(N4C[C@@H]5C[C@H]4CO5)cc23)cccc1C(F)(F)F [Example 12-8] , respond with its log10 Ki.
**A:** 0.06

**Q:** Given Cc1c([C@@H](C)Nc2nncc3ccc(OC4CCN5CCCC5C4)cc23)cccc1C(F)(F)F (some centres unmarked) [Example 2-12] , respond with its log10 Ki.
**A:** 0.76

**Q:** Given CNCc1cccc([C@@H](C)Nc2nnc(C)c3ccc(N4CCOCC4)cc23)c1C [Example 6-8] , respond with its log10 Ki.
**A:** 1.59

**Q:** Given Cc1nnc(N[C@H](C)c2cccc(F)c2F)c2cc(N3CC(C)(N(C)C)C3)ncc12 [Example 12-83] , respond with its log10 Ki.
**A:** 1.70

**Q:** Given Cc1nnc(N[C@H](C)c2cc(F)cc(C#N)c2)c2cc(N3CCOCC3)ccc12 [Example 10-52] , respond with its log10 Ki.
**A:** 1.65

**Q:** Given Cc1cn2c(n1)C(C)N(c1ccc3cnnc(N[C@H](C)c4cccc(C(F)(F)F)c4C)c3c1)CC2 (some centres unmarked) [Example 1-44] , respond with its log10 Ki.
**A:** -0.38

**Q:** Given Cc1c([C@@H](C)Nc2nnc(C)c3ccc(N4CCC5(CCCN5)CC4)cc23)cccc1C(F)(F)F [Example 10-35] , respond with its log10 Ki.
**A:** -0.51

**Q:** Given Cc1nnc(N[C@H](C)c2ccc(F)cc2F)c2cc(N3CC(C)(O)C3)ncc12 [Example 12-47] , respond with its log10 Ki.
**A:** 1.59

**Q:** Given Cc1c(Cl)cccc1[C@@H](C)Nc1nnc(C)c2cnc(N3CCOCC3)cc12 [Example 6-18] , respond with its log10 Ki.
**A:** 2.50

**Q:** Given Cc1c([C@@H](C)Nc2nnc(C)c3ccc(-n4cc5c(n4)CNC5)cc23)cccc1C(F)(F)F [Example 10-16] , respond with its log10 Ki.
**A:** 0.89

**Q:** Given Cc1c([C@@H](C)Nc2nncc3ccc(N4CCN(C)C(CF)C4)cc23)cccc1C(F)(F)F (some centres unmarked) [Example 1-43] , respond with its log10 Ki.
**A:** 0.13

**Q:** Given Cc1nnc(N[C@H](C)c2cc(N)cc(C(F)(F)F)n2)c2cc(N3CCN(C)CC3)ncc12 [Example 16-12] , respond with its log10 Ki.
**A:** 0.98

**Q:** Given Cc1c(C#N)cccc1[C@@H](C)Nc1nnc(C)c2ccc(O[C@H]3CCOC3)cc12 [Example 13-3] , respond with its log10 Ki.
**A:** 1.09

**Q:** Given Cc1c(C#N)cccc1[C@@H](C)Nc1nnc(C)c2ccc(N3CC4(CCN(C)C4=O)C3)cc12 [Example 10-69] , respond with its log10 Ki.
**A:** 0.49

**Q:** Given Cc1c(C#N)cccc1[C@@H](C)Nc1nnc(C)c2cnc(N3CCN4CCOC[C@@H]4C3)cc12 [Example 12-27] , respond with its log10 Ki.
**A:** 0.45

**Q:** Given Cc1c(C#N)cccc1[C@@H](C)Nc1nnc(C)c2cc(C(F)(F)F)c(N3CC(C)(O)C3)cc12 [Example 19-3] , respond with its log10 Ki.
**A:** 1.29

**Q:** Given Cc1nnc(N[C@H](C)c2cccc(C(F)(F)F)c2F)c2cc(N3CC(C)(O)C3)ncc12 [Example 12-61] , respond with its log10 Ki.
**A:** 0.23

**Q:** Given Cc1c(C#N)cc(F)cc1[C@@H](C)Nc1nnc(C)c2cnc(N3CC(C)(O)C3)cc12 [Example 12-107] , respond with its log10 Ki.
**A:** 1.55

**Q:** Given Cc1c([C@@H](C)Nc2nnc(C)c3cnc(OC4CN(C)C4)cc23)cccc1C(F)(F)F [Example 12-12] , respond with its log10 Ki.
**A:** 1.33

**Q:** Given Cc1c(C#N)cccc1[C@@H](C)Nc1nnc(C)c2cnc(N3CCC(C)(O)CC3)cc12 [Example 12-53] , respond with its log10 Ki.
**A:** -0.08

**Q:** Given Cc1nnc(N[C@H](C)c2cccc(C(F)(F)F)c2F)c2cc(N3CCN(C)CC3)ncc12 [Example 12-67] , respond with its log10 Ki.
**A:** -0.44

**Q:** Given Cc1c([C@@H](C)Nc2nnc(C)c3ccc(O[C@H]4CCOC4)cc23)cccc1C(F)(F)F [Example 13-1] , respond with its log10 Ki.
**A:** 0.44

**Q:** Given Cc1nnc(N[C@H](C)c2cccc(C(F)(F)F)c2F)c2cc(N3CC(C)(N(C)C)C3)ccc12 [Example 10-78] , respond with its log10 Ki.
**A:** 0.06

**Q:** Given Cc1c([C@@H](C)Nc2nnc(C)c3cnc(N4CC5CC(C4)O5)cc23)cc(F)cc1C(F)(F)F [Example 12-113] , respond with its log10 Ki.
**A:** 0.42

The reported measurements were obtained from patent US11702418B2.
